biological target: Lysine-specific demethylase 4A (Homo sapiens); assay: qHTS Assay for Inhibitors of JMJD2A-Tudor Domain; conditions: AlphaScreen JMJD2A-Tudor / H3K4me3 peptide binding; series mostly up to 114 µM; further: nearly all actives have a fitted effect of over 50% in size
Among all 390,000 compounds or so, about 17,000 (4.4%) were called active. Inconclusive results (about 8%) are left out. The call rests on the fitted dose curve; in most records, active means well fitted inhibition curve with a large enough effect; inconclusive means small, poorly fitted or top-dose-only effect; inactive means no such curve, though single readings can be large or run the other way. This is one part of a sample in which actives are shown more often than they occur.
Valid outcomes are listed here; reply with one: true = active, false = inactive

Answered examples (8):
COC(=O)c1ccc(/C=N/N2C(C)CCCC2C)cc1 (stereo not given) :: true
O=C(NCC1CCN(Cc2ccccc2Cl)CC1)Nc1cccc(Cl)c1 :: false
COC(=O)COc1ccc2c(c1C)O/C(=C\c1ccco1)C2=O :: false
COC(=O)C1=C(C)N(c2ccc(C)cc2)/C(=C/c2ccc(O)cc2)C1=O :: false
CC(C)Oc1ccc(NC(=O)c2cc3ccccc3o2)cc1 :: false
N#Cc1c(N)sc2c1CCN(C(=O)OCc1ccccc1)C2 :: true
COC(=O)C1=C(C)N(C(C)c2ccccc2)C(=O)/C1=C\c1ccco1 (stereo not given) :: true
CSc1ccc(/C=N/N2CCN(Cc3ccccc3Cl)CC2)cc1 :: true

Tell me the recorded outcome of this test for CC(C)N1CCc2c(sc(NC(=O)Cc3ccccc3)c2C#N)C1 .
false

What did this assay record as the result for C#CCOCCOCCOCCNc1nc(N2CCN(C(=O)Cn3cc(CCO)nn3)CC2)nc(N2CCN(C(=O)[C@H](CCCCN)n3cc(CCCC)nn3)CC2)n1 ?
false

###

target: Lysine-specific demethylase 4A (Homo sapiens) (UniProt O75164); assay: qHTS Assay for Inhibitors of JMJD2A-Tudor Domain; settings: AlphaScreen JMJD2A-Tudor / H3K4me3 peptide binding; series mostly up to 114 µM; further: nearly all actives have a fitted effect of over 50% in size
Sequence (O75164 whole entry, looked up, the tested form may be a part): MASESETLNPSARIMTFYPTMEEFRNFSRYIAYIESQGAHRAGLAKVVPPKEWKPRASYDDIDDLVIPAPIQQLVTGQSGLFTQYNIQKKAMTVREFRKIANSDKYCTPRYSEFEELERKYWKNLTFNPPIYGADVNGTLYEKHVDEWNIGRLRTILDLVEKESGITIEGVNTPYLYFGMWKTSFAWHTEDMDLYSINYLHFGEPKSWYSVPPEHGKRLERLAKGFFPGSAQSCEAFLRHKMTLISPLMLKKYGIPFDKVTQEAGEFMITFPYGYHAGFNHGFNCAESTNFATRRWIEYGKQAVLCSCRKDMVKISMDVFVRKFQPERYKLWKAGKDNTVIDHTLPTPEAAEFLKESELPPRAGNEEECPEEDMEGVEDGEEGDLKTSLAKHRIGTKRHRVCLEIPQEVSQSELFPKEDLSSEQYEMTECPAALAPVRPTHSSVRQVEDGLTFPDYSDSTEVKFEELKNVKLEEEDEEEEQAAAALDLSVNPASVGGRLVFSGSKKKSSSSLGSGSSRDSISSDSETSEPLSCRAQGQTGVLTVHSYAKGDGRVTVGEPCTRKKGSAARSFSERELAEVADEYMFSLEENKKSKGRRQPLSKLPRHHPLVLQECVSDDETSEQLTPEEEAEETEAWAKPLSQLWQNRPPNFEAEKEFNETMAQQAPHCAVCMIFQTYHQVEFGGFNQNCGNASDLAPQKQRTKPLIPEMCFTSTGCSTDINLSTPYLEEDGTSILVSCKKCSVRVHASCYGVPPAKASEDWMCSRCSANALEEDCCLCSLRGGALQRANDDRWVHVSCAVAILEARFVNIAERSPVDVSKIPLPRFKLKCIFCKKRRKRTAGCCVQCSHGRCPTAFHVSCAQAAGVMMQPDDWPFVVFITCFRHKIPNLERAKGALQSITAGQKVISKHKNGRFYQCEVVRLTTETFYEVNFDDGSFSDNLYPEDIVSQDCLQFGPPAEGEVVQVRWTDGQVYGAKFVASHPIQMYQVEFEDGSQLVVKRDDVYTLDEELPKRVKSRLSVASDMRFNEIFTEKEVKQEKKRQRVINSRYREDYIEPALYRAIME
Among all 390,000 compounds or so, about 17,000 (4.4%) were called active. Not shown: some 8% with an inconclusive outcome. Calls follow the shape of the dose curve; as a rule, active = well fitted inhibition curve with a large enough effect; inconclusive = small, poorly fitted or top-dose-only effect; inactive = no such curve, though single readings can be large or run the other way. The entries come from a sample that favours actives as a whole.
Choose the fitting class; nothing outside true = active, false = inactive is accepted.

For orientation, consider the following solved cases.
C/C=C/c1ccc(OCCCCN2CCC(C)CC2)c(OC)c1 :: true
COc1ccc(C2/C=C\CN(Cc3ccco3)C(C)C(=O)N2Cc2ccc(F)cc2)cc1 (stereo unspecified) :: false
COc1cc(Br)cc2cc(S(=O)(=O)c3ccccc3)c(=O)oc12 :: false
O=C(CNC(=O)c1ccc(Cl)c(C(F)(F)F)c1)OC(C(=O)Nc1cc(C(F)(F)F)ccc1Cl)c1ccccc1 (stereo unspecified) :: false
Cc1n[nH]c(=S)n1/N=C/c1ccc(Br)o1 :: true

Dear all, I need the recorded test outcome for COc1ccc(CCC(=O)NCc2ccc3c(c2)CCN3C(=O)c2ccc(F)cc2)cc1 , thank you.
false

Hi, sorry to bother you, what did the test record for C/C=C/c1ccc(OCC(O)CN2CCCCCCC2)c(OC)c1 (stereo unspecified) ?
true

Per the records of this test, what outcome belongs to CCOc1cccc2sc(N3CCN(C(=O)C4CC4)CC3)nc12 ?
false

In this assay, the call recorded for COc1ccc(CCNC(=O)COC(=O)C2CC2C)cc1 (stereo unspecified) was what?
false

What was the test verdict on O=C(CCC(=O)N/N=C/c1ccc(Br)o1)N/N=C/c1ccc(Br)o1 ?
false

Look up the recorded call for COc1ccc(CCNC(=O)COC(=O)c2ccc[nH]c2=O)cc1 in this test.
true

###

target: Lysine-specific demethylase 4A (Homo sapiens) (UniProt O75164); assay: qHTS Assay for Inhibitors of JMJD2A-Tudor Domain; settings: AlphaScreen JMJD2A-Tudor / H3K4me3 peptide binding; series mostly up to 114 µM; further: nearly all actives have a fitted effect of over 50% in size
Among all 390,000 compounds or so, about 17,000 (4.4%) were called active. Another 8% or so got no clear call; they are omitted. The call rests on the fitted dose curve; in most records, active means well fitted inhibition curve with a large enough effect; inconclusive means small, poorly fitted or top-dose-only effect; inactive means no such curve, though single readings can be large or run the other way. For the sample, actives were picked, then their nearest neighbours and some compounds at random.
Lab note: assign the record to one of active, inactive

COc1cc(/C=C/C(=O)N2c3ccccc3Sc3ccc(C(F)(F)F)cc32)cc(OC)c1OC :: inactive

Field: outcome | Entry: CCOc1ccc(OCC)c(NC(=O)CN(C)S(=O)(=O)c2cccc3nsnc23)c1
active

Tell me the assay call for CCOc1ccc(NC(=O)CCS(=O)(=O)c2cccc3nsnc23)cc1 please.
inactive

Tell me the recorded outcome of this test for CS(=O)(=O)c1ccc2c(c1)SC1=NC(=O)/C(=C/c3ccco3)C(=N)N12 .
inactive

What is the recorded call for this compound in the test? CCOc1ccc(/C=C2\SC(=S)N(NC(=O)c3ccncc3)C2=O)cc1OC
inactive

In this assay, the call recorded for Cc1cccc(-n2c(C)cc(/C=N/NC(N)=S)c2C)c1 was what?
active

Give the logged outcome of this assay for the following compound: Cc1cc(/C=N/NC(N)=O)c(C)n1C1CCCCC1
inactive

Assay result, entry COc1cc(/C=C2\SC(=S)N(Nc3ncc(C(F)(F)F)cc3Cl)C2=O)cc(OC)c1OC — outcome?
active

Which outcome did this test record for the compound O=C(Cc1ccccc1)Nc1ccc(NC(=O)c2cccnc2)cc1 ?
inactive

Per the assay record, what outcome was assigned to Cc1cc(/C=N/n2cnnc2)c(C)n1-c1ccc2ncccc2c1 ?
inactive

###

target: Lysine-specific demethylase 4A (Homo sapiens) (UniProt O75164); assay: qHTS Assay for Inhibitors of JMJD2A-Tudor Domain; settings: AlphaScreen JMJD2A-Tudor / H3K4me3 peptide binding; series mostly up to 114 µM; further: nearly all actives have a fitted effect of over 50% in size
Screen size: about 390,000 compounds; about 17,000 (4.4%) were called active. Not shown: some 8% with an inconclusive outcome. Calls follow the shape of the dose curve; as a rule, active = well fitted inhibition curve with a large enough effect; inconclusive = small, poorly fitted or top-dose-only effect; inactive = no such curve, though single readings can be large or run the other way. For the sample, actives were picked, then their nearest neighbours and some compounds at random.
Use one of these outcomes when replying: true (active), false (inactive)

CC(C)(C)n1c(=O)[nH]c2c(c1=O)CCC2 :: false

Name the outcome recorded for COc1cccc(NC(=O)CSc2cc(=O)n(C)c3ccc(Cl)cc23)c1 in the assay.
false

Name the outcome recorded for COc1ccc(CNC(=O)CC2Oc3ccc(C)cc3NC2=O)cc1 (stereo not given) in the assay.
false

Recorded test outcome, item CCC(=O)N1c2ccccc2CC1C(=O)N1CCN(c2ccccc2)CC1 (stereo not given)
false

Test call, this molecule: O=C(NCCCc1ccccc1)c1ccc2c(c1)sc1nc(-c3ccc(F)cc3)cn12
false

What classification did CCOC(=O)C1CCN(S(=O)(=O)c2cc(F)ccc2OC)CC1 end up with in this test?
false

I would be grateful if you could indicate the recorded call for CCOc1ccccc1CNC(=O)c1cnc2c(-c3ccc(OCC)c(OCC)c3)c(C)nn2c1C .
false

Record request — test call for O=c1[nH]n2c(=O)c3c([nH]c2c1N=Nc1ccccc1)CCC3
true

Check the results log: what was the call for Cc1ccc(NC(=O)CN2c3ccccc3S(=O)(=O)c3ccccc32)cc1F ?
false

How did this test come out for CCOC(=O)C1CCCN(C(=O)c2ccc3c(c2)sc2nc(-c4ccc(CC)cc4)cn23)C1 (stereo not given) ?
false

###

target: Lysine-specific demethylase 4A (Homo sapiens) (UniProt O75164); assay: qHTS Assay for Inhibitors of JMJD2A-Tudor Domain; conditions: AlphaScreen JMJD2A-Tudor / H3K4me3 peptide binding; series mostly up to 114 µM; further: nearly all actives have a fitted effect of over 50% in size
The campaign covered roughly 390,000 compounds. About 17,000 (4.4%) were called active. Not shown: some 8% with an inconclusive outcome. Calls come from the whole dose curve; as a rule, active = well fitted inhibition curve with a large enough effect; inconclusive = small, poorly fitted or top-dose-only effect; inactive = no such curve, though single readings can be large or run the other way. The sample as a whole holds a higher share of actives than the screen did.
Tick one outcome: class 1 = active, class 0 = inactive

COc1cccc(-c2nnc3n(CCc4ccccc4)c(=O)c4ccccc4n23)c1O :: class 0
CCOC(=O)C1CCCN(S(=O)(=O)c2cc(-c3cc(C)no3)ccc2OC)C1 (stereo not given) :: class 0

# fetch the recorded call for CC(=O)Nc1ccc(NC(=O)COc2ccc(S(=O)(=O)NC(C)c3ccccc3)cc2)cc1 (stereo not given) here
class 0

Please share the test call associated with Cc1ccccc1NC(=O)Cn1c(=O)n(CCc2ccccc2)c(=O)c2ccccc21 .
class 0

Dear all, I need the recorded test outcome for COc1cccc(N=C2SC(C(=O)Nc3cccc(Cl)c3)CC(=O)N2C)c1 (stereo not given) , thank you.
class 0

Outcome logged for CC(NS(=O)(=O)c1ccc(OCC(=O)N2CCCC2)cc1)c1ccccc1 (stereo not given) in this assay:
class 0

Hello, I am checking results. What call was entered for O=C(OCc1cc(=O)n2nc(C3CC3)sc2n1)c1ccccc1Cl ?
class 0

Please indicate how the test categorized CCCCC(CC(C)O)c1n[nH]c(=S)n1-c1ccccc1 (stereo not given) .
class 1

Kindly provide the recorded test outcome for the following compound: CC(NS(=O)(=O)c1ccccc1)c1n[nH]c(=S)n1-c1ccccc1 (stereo not given)
class 1

Please state the recorded outcome for this compound: Cc1ccc(N(CC(=O)NCC(C)c2ccccc2)S(=O)(=O)N(C)C)cc1 (stereo not given)
class 0

###

target: Lysine-specific demethylase 4A (Homo sapiens) (UniProt O75164); test: qHTS Assay for Inhibitors of JMJD2A-Tudor Domain; conditions: AlphaScreen JMJD2A-Tudor / H3K4me3 peptide binding; series mostly up to 114 µM; further: nearly all actives have a fitted effect of over 50% in size
Screen size: about 390,000 compounds; about 17,000 (4.4%) were called active. About 8% were inconclusive and are not listed. The call rests on the fitted dose curve; in most records, active means well fitted inhibition curve with a large enough effect; inconclusive means small, poorly fitted or top-dose-only effect; inactive means no such curve, though single readings can be large or run the other way. Only a selection was taken, and actives are over-represented in it overall.
Respond only with the outcome that fits, drawn from 1 = active, 0 = inactive

Test call, this compound: CCOC(=O)c1cccc(NS(=O)(=O)c2cn(C)c(C)n2)c1
0

Hi team, can someone confirm the assay call for Fc1ccc(-n2ncc3c(Nc4ccc(Oc5ccccc5)cc4)ncnc32)cc1 ?
0

Please let me know the test result on file for COc1cccc(NC(=O)c2nn(C34CC5CC(CC(C5)C3)C4)cc2[N+](=O)[O-])c1 .
0

Write down the call the test reported for this compound. Item: Cc1nc([N+](=O)[O-])nn1C12CC3CC(CC(Br)(C3)C1)C2
1

What is the recorded call for this compound in the test? Cc1ccsc1CN(C(=O)c1oc2ccc(Br)cc2c1C)C1CCS(=O)(=O)C1 (stereo not given)
0

Hi team, can someone confirm the assay call for Cc1cccc(-n2c(SCC(N)=O)nc3c(oc4ccccc43)c2=O)c1 ?
0

In this assay, the call recorded for COc1ccc(CC(=O)Nc2ccc(-c3nc4ccccc4s3)c(C)c2)cc1 was what?
0

Please share the test call associated with CCOc1ccccc1CNC(=O)C1CCCN(S(=O)(=O)c2ccc3c(ccn3C)c2)C1 (stereo not given) .
0

// outcome(item) with item = CCOC(=O)N1CCc2c(sc3c2c(=O)n(Cc2ccccc2)c(=O)n3CC(=O)Nc2cccc(C)c2)C1
0

What was the test verdict on CCOC(=O)c1cc2c(=O)n3ccccc3nc2n(CCCOC)c1=NC(=O)C(C)Oc1ccccc1 (stereo not given) ?
0
